biological target: T1, recombinant monomeric SARS-CoV-2 S1 protein, his-tagged (SARS-CoV-2, UniProt P0DTC2 16-681); assay: flow cytometry, blocking of binding to hACE-2 cells
T1 construct: domain: S1
# percent blocking annotations
Test Readout: percent blocking (%)

Binder | Unit Tag | Experimental Result
1035753 (antibody, V domains shown) VH: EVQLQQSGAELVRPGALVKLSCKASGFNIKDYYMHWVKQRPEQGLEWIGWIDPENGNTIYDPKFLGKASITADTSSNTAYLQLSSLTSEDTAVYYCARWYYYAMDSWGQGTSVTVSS VL: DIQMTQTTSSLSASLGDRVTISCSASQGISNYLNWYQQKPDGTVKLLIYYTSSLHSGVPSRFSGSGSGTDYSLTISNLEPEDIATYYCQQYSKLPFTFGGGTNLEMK | % | 94
1035716 (antibody, V domains shown) VH: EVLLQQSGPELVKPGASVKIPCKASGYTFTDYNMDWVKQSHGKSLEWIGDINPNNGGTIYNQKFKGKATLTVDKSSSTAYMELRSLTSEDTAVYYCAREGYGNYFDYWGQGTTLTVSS VL: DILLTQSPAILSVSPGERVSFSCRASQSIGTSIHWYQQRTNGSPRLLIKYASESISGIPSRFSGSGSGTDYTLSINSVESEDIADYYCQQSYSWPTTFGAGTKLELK | % | 93.8

Recorded values, source patent US20230408517A1.
